biological target: Androgen receptor (Homo sapiens); experiment: qHTS assay to identify small molecule antagonists of the androgen receptor (AR) signaling pathway using the MDA cell line in the presence of 0.5 nM R1881 (AID 1259243); conditions: MDA-kb2 MMTV-luciferase, R1881 0.5 nM, 16 h; series mostly up to 42.5 µM; also: nearly all actives have a fitted effect of over 50% in size; also: potency is read from the fitted curve at half-maximal effect
Results filed as inconclusive are left out. Active and inactive are the calls of the source. Calls follow the shape of the dose curve; as a rule, active = well fitted inhibition curve with a large enough effect in the repeat runs; inconclusive = weak or mixed curves; inactive = no such curve, though single readings can be large or run the other way.
assay_readout: Potency

Consider the worked cases shown below.
[[record]]
molecule = "CC(=O)O[C@H]1CC[C@@]2(C)C(=CC[C@@H]3[C@@H]2CC[C@]2(C)C(C(C)=O)=CC[C@@H]32)C1"
target_of_assay = "Androgen receptor (Homo sapiens)"
assay_readout = "Potency"
meas_value = "11.9 µM (active)"

[[record]]
molecule = "CC(C)(C)c1cccc(O)c1"
target_of_assay = "Androgen receptor (Homo sapiens)"
assay_readout = "Potency"
meas_value = "inactive"

[[record]]
molecule = "O=Cc1ccc(O)c(O)c1O"
target_of_assay = "Androgen receptor (Homo sapiens)"
assay_readout = "Potency"
meas_value = "inactive"

[[record]]
molecule = "CC(=O)OC(C)OC(C)=O"
target_of_assay = "Androgen receptor (Homo sapiens)"
assay_readout = "Potency"
meas_value = "inactive"

[[record]]
molecule = "CC(Oc1c(Cl)cccc1Cl)C1=NCCN1 (stereo not given)"
target_of_assay = "Androgen receptor (Homo sapiens)"
assay_readout = "Potency"
meas_value = "inactive"

[[record]]
molecule = "NC(=O)NS(=O)(=O)c1ccc(Cl)cc1"
target_of_assay = "Androgen receptor (Homo sapiens)"
assay_readout = "Potency"
meas_value = "inactive"

[[record]]
molecule = "COC(=O)C(C)O (stereo not given)"
target_of_assay = "Androgen receptor (Homo sapiens)"
assay_readout = "Potency"
meas_value = "inactive"

[[record]]
molecule = "COC(C)CCO (stereo not given)"
target_of_assay = "Androgen receptor (Homo sapiens)"
assay_readout = "Potency"
meas_value = "inactive"

[[record]]
molecule = "NCCCN1CCN(CCCN)CC1"
target_of_assay = "Androgen receptor (Homo sapiens)"
assay_readout = "Potency"
meas_value = "inactive"


Would you kindly look at the next entry?
For `CN1CCN(C2=Nc3cc(F)ccc3Cc3ccccc32)CC1` the molecule record lists Potency as 16.8 µM (active)
